Entries and their measured IC50 follow.
# testSystem: USP25 (Homo sapiens)
# Sequence (Q9UHP3 1-1055): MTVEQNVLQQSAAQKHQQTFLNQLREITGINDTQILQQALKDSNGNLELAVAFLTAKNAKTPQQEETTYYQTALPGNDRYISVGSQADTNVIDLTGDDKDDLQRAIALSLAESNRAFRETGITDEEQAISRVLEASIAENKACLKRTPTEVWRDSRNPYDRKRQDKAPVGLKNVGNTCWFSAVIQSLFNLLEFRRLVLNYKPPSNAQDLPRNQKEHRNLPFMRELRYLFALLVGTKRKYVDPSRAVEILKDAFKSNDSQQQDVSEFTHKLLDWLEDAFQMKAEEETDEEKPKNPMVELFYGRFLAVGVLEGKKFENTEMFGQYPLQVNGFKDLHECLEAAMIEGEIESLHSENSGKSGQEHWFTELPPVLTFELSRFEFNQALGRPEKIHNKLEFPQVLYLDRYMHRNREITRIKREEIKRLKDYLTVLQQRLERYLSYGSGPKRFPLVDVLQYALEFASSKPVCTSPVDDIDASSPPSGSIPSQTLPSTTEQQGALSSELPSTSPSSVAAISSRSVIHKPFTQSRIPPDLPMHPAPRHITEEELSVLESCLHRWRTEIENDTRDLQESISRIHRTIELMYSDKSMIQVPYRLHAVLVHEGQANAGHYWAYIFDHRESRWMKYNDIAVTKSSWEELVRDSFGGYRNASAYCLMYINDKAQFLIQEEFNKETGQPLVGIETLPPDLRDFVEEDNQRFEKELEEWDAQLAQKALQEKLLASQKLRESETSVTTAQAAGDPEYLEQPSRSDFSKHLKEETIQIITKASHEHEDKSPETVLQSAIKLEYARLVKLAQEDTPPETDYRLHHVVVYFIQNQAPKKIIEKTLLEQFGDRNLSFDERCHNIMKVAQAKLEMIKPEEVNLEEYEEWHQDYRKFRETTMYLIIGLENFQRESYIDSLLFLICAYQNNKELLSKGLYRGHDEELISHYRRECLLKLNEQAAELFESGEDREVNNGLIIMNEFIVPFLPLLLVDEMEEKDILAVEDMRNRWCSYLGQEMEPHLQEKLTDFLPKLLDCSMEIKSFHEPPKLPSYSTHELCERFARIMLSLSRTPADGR

The recorded IC50 with USP25 (Homo sapiens) for "CCn1ccc2c(NC)c(C(=O)N[C@@H]3COc4cc(N5CC6CCC(C5)N6)ccc4C3)cnc21" was 500 to 1000 nM

The recorded IC50 with USP25 (Homo sapiens) for "CCn1ccc2c(NC)c(C(=O)NCCc3ccc(N4CC5CCC(C4)N5)cc3F)cnc21" was 50 to 500 nM

The recorded IC50 with USP25 (Homo sapiens) for "CNc1c(C(=O)NCCc2ccc(N3CC4CCC(C3)N4)cc2)cnc2c1ccn2C" was 50 to 500 nM
